- Test system: NQO1 activation in BEAS-2B cells
- experiment description: BEAS-2B cellular MTT assay of NQO1 activation, 0% HSA
- Format: cell-based
- experimental context: Homo sapiens, Serum Free W, read-out: BEAS EC50 (nM) Serum Free W
endpoint: EC50

INSERT INTO assay_data (compound, endpoint, experimental_result) VALUES
  ('Cc1c2cnc3c1nnn3CCCC/C=C/Cc1ccc(cc1)C(=O)N1CCc3ccc(cc3C1)[C@H]2CC(=O)O', 'EC50', '21.9 nM'),
  ('Cc1c2cnc3c1nnn3CCCCCc1cccc(c1)C(=O)N1CCc3ccc(cc3C1)C2CC(=O)O (centres unmarked)', 'EC50', '> 1000 nM'),
  ('Cc1c2ccc3c1nnn3CCCCCCc1ccc(c(F)c1)C(=O)N1CCc3ccc(cc3C1)[C@H]2[C@H](C)C(=O)O', 'EC50', '1.1 nM'),
  ('Cc1c2cnc3c1nnn3CCCCCCOc1cc(F)c(c(F)c1)C(=O)N1CCc3ccc(cc3C1)C2CC(=O)O (centres unmarked)', 'EC50', '9.8 nM'),
  ('Cc1c2cnc3c1nnn3CCCCCCc1ccc3c(c1)cc(n3C)C(=O)N1CCc3ccc(cc3C1)C2CC(=O)O (centres unmarked)', 'EC50', '1.9 nM'),
  ('Cc1cc2ncc1[C@H]([C@@H](C)C(=O)O)c1ccc3c(c1)CN(CC3)C(=O)c1ccc(cc1)C/C=C/CCO2', 'EC50', '1.7 nM'),
  ('O=C(O)C[C@@H]1c2cnc(nc2)OCCCCCc2c(F)c(F)c(c(F)c2F)C(=O)N2CCc3ccc1cc3C2', 'EC50', '393 nM'),
  ('Cc1c2ccc3c1nnn3CCCCCCc1ccc3c(c1)cc(n3C)C(=O)N1CCc3ccc(cc3C1)[C@@H]2[C@H](C)C(=O)O', 'EC50', '3.6 nM'),
  ('Cc1c2ccc3c1nnn3CCCCCCc1ccc(cc1)C(=O)N1CCc3ccc(cc3C1)[C@@H]2[C@@H](C)C(=O)O', 'EC50', '> 1000 nM'),
  ('Cc1cc2ncc1[C@@H]([C@@H](C)C(=O)O)c1ccc3c(c1)CN(CC3)C(=O)c1ccc(cc1)CCCCCO2', 'EC50', '594 nM'),
  ('Cc1cc2ncc1[C@H](CC(=O)O)c1ccc3c(c1)CN(CC3)C(=O)c1ccc(cc1)CCOCCO2', 'EC50', '161 nM'),
  ('Cc1c2ccc3c1nnn3CCCCCc1ccc3c(c1)cc(n3C)C(=O)N1CCc3ccc(cc3C1)[C@@H]2[C@H](C)C(=O)O (racemic)', 'EC50', '1.6 nM'),
  ('Cc1c2ccc3c1nnn3CCCCCCOc1ccc(cc1)C(=O)N1CCc3ccc(cc3C1)[C@@H]2[C@@H](C)C(=O)O', 'EC50', '3.6 nM'),
  ('COc1cc2ccc1CCCCCn1nnc3c(C)c(cnc31)[C@@H](CC(=O)O)c1ccc3c(c1)CN(CC3)C2=O', 'EC50', '18 nM');

###

- Test system: NQO1 activation in BEAS-2B cells
- experiment description: BEAS-2B cellular MTT assay of NQO1 activation, 0% HSA
- Format: cell-based
- experimental context: Homo sapiens, Serum Free W, read-out: BEAS EC50 (nM) Serum Free W
- Description: The growth rate of the BEAS-2B cells changed based on the lot of BEGM SingleQuots in the BEGM media. The cell growth rate was determined for each lot of SingleQuots. […] Until the cell growth rate was determined, cells were seeded at different densities (cells/cm^2) in multiple tissue culture flasks in order to avoid the cells becoming more than 70% confluent. […]
Labelling: EC50 reported below 9 nM becomes Condition met; at or above becomes Condition not met.

INSERT INTO measurements (compound, class) VALUES
  ('COc1cc2ccc1CCCCCCn1nnc3c(C)c(ccc31)[C@H](CC(=O)O)c1ccc3c(c1)CN(CC3)C2=O', 'Condition not met'),
  ('Cc1cc2cnc1OCCCCCc1ccc(cc1)C(=O)N1CCc3ccc(cc3C1)[C@@H]2[C@H](C)C(=O)O', 'Condition met'),
  ('Cc1c2ccc3c1nnn3CCCCCCc1ccc(c3cccnc13)C(=O)N1CCc3ccc(cc3C1)[C@@H]2CC(=O)O', 'Condition not met'),
  ('COc1cc2ccc1CCCCCCn1nnc3c(C)c(ccc31)[C@@H](CC(=O)O)c1ccc3c(c1)CN(CC3)C2=O', 'Condition met'),
  ('Cc1c2ccc3c1nnn3CCCCCCc1ccc3c(c1)cc(n3CC(F)F)C(=O)N1CCc3ccc(cc3C1)[C@@H]2CC(=O)O', 'Condition met'),
  ('Cc1c2ccc3c1nnn3CCOC/C=C/c1ccc(c(F)c1)C(=O)N1CCc3ccc(cc3C1)C2CC(=O)O (stereo not shown)', 'Condition not met');

###

- System: NQO1 activation in BEAS-2B cells
- experiment description: BEAS-2B cellular MTT assay of NQO1 activation, 0.3% HSA
- Assay type: cell-based
- experimental context: Homo sapiens, BEAS+, read-out: BEAS+ EC50
Entry class follows EC50: label 0 = under 30 nM, label 1 = from 30 nM up to 900 nM, label 2 = 900 nM and over

INSERT INTO assay_data (molecule, study_target, class) VALUES
  ('Cc1c2ccc3c1nnn3CCCCCCOc1cc(F)c(c(F)c1)C(=O)N1CCc3ccc(cc3C1)C2CC(=O)O (centres unmarked)', 'NQO1 activation in BEAS-2B cells', 'label 0'),
  ('O=C(O)CC1c2ccc3c(c2)CN(CC3)C(=O)c2ccc(cc2)OCCCCCCn2nnc3cc1ccc32 (centres unmarked)', 'NQO1 activation in BEAS-2B cells', 'label 2'),
  ('COc1cc2ccc1CCCCCCn1nnc3c(C)c(ccc31)C(CC(=O)O)c1ccc3c(c1)CN(CC3)C2=O (centres unmarked)', 'NQO1 activation in BEAS-2B cells', 'label 0'),
  ('Cn1c2cc3cc(ccc31)OCCCCCCn1nnc3cc(ccc31)C(CC(=O)O)c1ccc3c(c1)CN(CC3)C2=O (centres unmarked)', 'NQO1 activation in BEAS-2B cells', 'label 2'),
  ('Cc1c2ccc3c1nnn3CCCCCCc1ccc(cc1)C(=O)N1CCc3ccc(cc3C1)C2CC(=O)O (centres unmarked)', 'NQO1 activation in BEAS-2B cells', 'label 0'),
  ('Cc1c2ccc3c1nnn3CCCCCOc1ccc(cc1)C(=O)N1CCc3ccc(cc3C1)C2CC(=O)O (centres unmarked)', 'NQO1 activation in BEAS-2B cells', 'label 1'),
  ('O=C(O)CC1c2ccc3c(c2)CN(CC3)C(=O)c2ccc(cc2)CCCCCCn2nnc3cc1ccc32 (centres unmarked)', 'NQO1 activation in BEAS-2B cells', 'label 1'),
  ('O=C(O)CC1c2ccc3c(c2)CN(CC3)C(=O)c2ccc(cn2)CCCCCCn2nnc3c(Cl)c1ccc32 (centres unmarked)', 'NQO1 activation in BEAS-2B cells', 'label 1'),
  ('Cc1c2ccc3c1nnn3CCCCCc1ccc(nc1)C(=O)N1CCc3ccc(cc3C1)C2CC(=O)O (centres unmarked)', 'NQO1 activation in BEAS-2B cells', 'label 1'),
  ('Cc1c2ccc3c1nnn3CCCCCCOc1ccc(cc1)C(=O)N1CCc3ccc(cc3C1)C2CC(=O)O (centres unmarked)', 'NQO1 activation in BEAS-2B cells', 'label 1'),
  ('Cc1c2ccc3c1nnn3CCCCCCOc1ccc(cc1)C(=O)N1CCc3ccc(cc3C1)[C@@H]2[C@H](C)C(=O)O', 'NQO1 activation in BEAS-2B cells', 'label 1'),
  ('O=C(O)CC1c2ccc(nc2)OCCCCOc2cc(F)c(c(F)c2)C(=O)N2CCc3ccc1cc3C2 (centres unmarked)', 'NQO1 activation in BEAS-2B cells', 'label 2'),
  ('Cc1c2ccc3c1nnn3CCCCCCOc1ccc(cc1)C(=O)N1CCc3ccc(cc3C1)[C@@H]2[C@@H](C)C(=O)O', 'NQO1 activation in BEAS-2B cells', 'label 0'),
  ('O=C(O)CC1c2cnc(nc2)OCCCCCc2ccc(cc2)C(=O)N2CCc3ccc1cc3C2 (centres unmarked)', 'NQO1 activation in BEAS-2B cells', 'label 2'),
  ('Cc1c2ccc3c1nnn3CCCCCOc1ccc(c(F)c1)C(=O)N1CCc3ccc(cc3C1)C2CC(=O)O (centres unmarked)', 'NQO1 activation in BEAS-2B cells', 'label 1'),
  ('Cc1cc2ccc1C(=O)N1CCc3ccc(cc3C1)[C@H]([C@H](C)C(=O)O)c1ccc3c(nnn3CCCOCCO2)c1C', 'NQO1 activation in BEAS-2B cells', 'label 2'),
  ('C[C@H](C(=O)O)[C@@H]1c2ccc(nc2)OCCCCCc2cc(F)c(c(F)c2)C(=O)N2CCc3ccc1cc3C2', 'NQO1 activation in BEAS-2B cells', 'label 0'),
  ('O=C(O)CC1c2ccc(nc2)OCCCCOc2cnc(cn2)C(=O)N2CCc3ccc1cc3C2 (centres unmarked)', 'NQO1 activation in BEAS-2B cells', 'label 2'),
  ('O=C(O)CC1c2ccc(nc2)OCCCCOc2ccc(cc2)C(=O)N2CCc3ccc1cc3C2 (centres unmarked)', 'NQO1 activation in BEAS-2B cells', 'label 2'),
  ('Cc1cc2ccc1C(=O)N1CCc3ccc(cc3C1)C(C(C)(C)C(=O)O)c1ccc3c(c1)nnn3CCCCCCO2 (centres unmarked)', 'NQO1 activation in BEAS-2B cells', 'label 0'),
  ('COc1cc2ccc1C(=O)N1CCc3ccc(cc3C1)C(CC(=O)O)c1ccc3c(nnn3CCCCCC2)c1C (centres unmarked)', 'NQO1 activation in BEAS-2B cells', 'label 0'),
  ('O=C(O)CC1c2ccc3c(c2)CN(CC3)C(=O)c2ccc(c3ccccc23)OCCCCCn2nnc3cc1ccc32 (centres unmarked)', 'NQO1 activation in BEAS-2B cells', 'label 2'),
  ('Cc1c2ccc3c1nnn3CCCCCCc1ccc(cc1)C(=O)N1CCc3ccc(cc3C1)[C@H]2CC(=O)O', 'NQO1 activation in BEAS-2B cells', 'label 1'),
  ('Cc1nc2ncc1C(CC(=O)O)c1ccc3c(c1)CN(CC3)C(=O)c1ccc(c(Cl)c1)OCCCCO2 (centres unmarked)', 'NQO1 activation in BEAS-2B cells', 'label 2'),
  ('Cc1c2ccc3c1nnn3CCCCCCOc1ccc(c(F)c1)C(=O)N1CCc3ccc(cc3C1)[C@H]2CC(=O)O', 'NQO1 activation in BEAS-2B cells', 'label 1'),
  ('Cc1c2ccc3c1nnn3CCCCCCOc1ncc(cn1)C(=O)N1CCc3ccc(cc3C1)C2CC(=O)O (centres unmarked)', 'NQO1 activation in BEAS-2B cells', 'label 2'),
  ('COc1cc2ccc1CCCCCn1nnc3c(C)c(cnc31)C(CC(=O)O)c1ccc3c(c1)CN(CC3)C2=O (centres unmarked)', 'NQO1 activation in BEAS-2B cells', 'label 0'),
  ('Cc1c2ccc3c1nnn3CCC/C=C/COc1cnc(nc1)C(=O)N1CCc3ccc(cc3C1)C2CC(=O)O (centres unmarked)', 'NQO1 activation in BEAS-2B cells', 'label 1');
